- target entity: H460
- assay summary: Sensitivity to AG1478 with and without Notch3 inhibition (DN construct or γ-secretase inhibitor)
- Type: cell-based, human
- protocol conditions: H460 with inhibition of the Notch3 pathway
observable: IC50 (µM)
Write down the numeric answer in µM and omit the unit.

Query string: Enter IC50 (test system H460) for COc1cc2ncnc(Nc3cccc(Cl)c3)c2cc1OC [AG1478]
Result string: 12.1

---

- target entity: H460
- assay summary: Sensitivity to AG1478 with and without Notch3 inhibition (DN construct or γ-secretase inhibitor)
- Type: cell-based, human
- protocol conditions: H460, without Notch3 inhibition
observable: IC50 (µM)
The response must be a number in µM with no trailing unit.

Query string: Lab note: record IC50 of COc1cc2ncnc(Nc3cccc(Cl)c3)c2cc1OC tested on H460.
Result string: 23.8
